- Measurement target: K18 aggregates (Tau K18 fragment, amino acids 244 to 372 of human Tau441) (Homo sapiens, UniProt P10636)
- Construct: encompassing amino acids 244 to 372 of the longest isoform (2N4R) of human Tau441
- Protocol description: Tau K18 disaggregation assay by ThT
- Experimental parameters: 2 μM K18 aggregates, 160 to 0.04 μM compound, 30 minutes RT, ThT fluorescence; read-out: TauK18 disaggregation EC50
Parameter measured: EC50

Consider the worked cases shown below.
CN(C)C1CCc2c(c3ccc(Nc4ccc5sc(N6CCC[C@@H](F)C6)nc5c4)nc3n2C)C1 (stereo partly drawn)
< 10 µM
CN(C)C1CCc2c(c3ccc(Nc4ccc5sc(N6CCC(F)CC6)nc5c4)nc3n2C)C1 (stereo not drawn)
< 10 µM
CN(C)C1CCc2oc3nc(Nc4ccc5sc(N6CCOCC6)nc5c4)ccc3c2C1 (stereo not drawn)
< 10 µM
CN(C)[C@@H]1CCc2c(c3ccc(Nc4ccc5sc(N6CCOCC6)nc5c4)nc3n2C)C1
< 10 µM
CN(C)[C@@H]1CCc2c(c3ccc(Nc4ccc5oc(N6CCOCC6)nc5c4)nc3n2C)C1
10 to 25 µM

Query block: For the compound CN(C)[C@@H]1CCc2oc3nc(Nc4ccc5oc(N6CCOCC6)nc5c4)ccc3c2C1 , what EC50 is on record?
Result block: 10 to 25 µM

Query block: For the compound CC(C)N1CCc2c(c3ccc(Nc4ccc5sc(N6CCC(F)CC6)nc5c4)nc3n2C)C1 , what EC50 is on record?
Result block: < 10 µM

Query block: For the compound CN(C)C1CCc2c(c3ccc(Nc4ccc5sc(N6CCOCC6)nc5c4)nc3n2C)C1 (stereo not drawn) , what EC50 is on record?
Result block: < 10 µM

Query block: For the compound CC(C)N1CCc2oc3nc(Nc4ccc5nc(N6CCOCC6)sc5c4)ccc3c2C1 , what EC50 is on record?
Result block: < 10 µM

Query block: For the compound CC(C)N1CCc2oc3nc(Nc4ccc5sc(N6CCOCC6)nc5c4)ccc3c2C1 , what EC50 is on record?
Result block: 25 to 50 µM

Query block: For the compound CN(C)[C@@H]1CCc2oc3nc(Nc4ccc5sc(N6CCOCC6)nc5c4)ccc3c2C1 , what EC50 is on record?
Result block: < 10 µM

Query block: For the compound CN(C)C1CCc2c(c3ccc(Nc4ccc5nc(N6CCC(F)CC6)sc5c4)nc3n2C)C1 (stereo not drawn) , what EC50 is on record?
Result block: 10 to 25 µM

Query block: For the compound CN(C)[C@@H]1CCc2c(c3ccc(Nc4ccc5nc(N6CCOCC6)sc5c4)nc3n2C)C1 , what EC50 is on record?
Result block: < 10 µM

Query block: For the compound CN(C)[C@@H]1CCc2c(c3ccc(Nc4ccc5nc(N6CCC[C@@H](F)C6)oc5c4)nc3n2C)C1 , what EC50 is on record?
Result block: 10 to 25 µM

Query block: For the compound CN(C)[C@H]1CCc2oc3nc(Nc4ccc5oc(N6CCOCC6)nc5c4)ccc3c2C1 , what EC50 is on record?
Result block: < 10 µM

Query block: For the compound CN(C)[C@H]1CCc2c(c3ccc(Nc4ccc5sc(N6CCOCC6)nc5c4)nc3n2C)C1 , what EC50 is on record?
Result block: < 10 µM

Query block: For the compound CN(C)C1CCc2c(c3ccc(Nc4ccc5sc(N6CCC[C@H](F)C6)nc5c4)nc3n2C)C1 (stereo partly drawn) , what EC50 is on record?
Result block: < 10 µM

Query block: For the compound CN(C)C1CCc2c(c3ccc(Nc4ccc5nc(N6CCOCC6)sc5c4)nc3n2C)C1 (stereo not drawn) , what EC50 is on record?
Result block: < 10 µM

----------
- Measurement target: flTau aggregates (longest isoform of human Tau, 2N4R; 441 amino acids) (Homo sapiens)
- Construct: 35 μM of recombinant full-length (fl)Tau in PBS were aggregated for 24 hours
- Sequence (P10636 1-441 isoform P10636-8): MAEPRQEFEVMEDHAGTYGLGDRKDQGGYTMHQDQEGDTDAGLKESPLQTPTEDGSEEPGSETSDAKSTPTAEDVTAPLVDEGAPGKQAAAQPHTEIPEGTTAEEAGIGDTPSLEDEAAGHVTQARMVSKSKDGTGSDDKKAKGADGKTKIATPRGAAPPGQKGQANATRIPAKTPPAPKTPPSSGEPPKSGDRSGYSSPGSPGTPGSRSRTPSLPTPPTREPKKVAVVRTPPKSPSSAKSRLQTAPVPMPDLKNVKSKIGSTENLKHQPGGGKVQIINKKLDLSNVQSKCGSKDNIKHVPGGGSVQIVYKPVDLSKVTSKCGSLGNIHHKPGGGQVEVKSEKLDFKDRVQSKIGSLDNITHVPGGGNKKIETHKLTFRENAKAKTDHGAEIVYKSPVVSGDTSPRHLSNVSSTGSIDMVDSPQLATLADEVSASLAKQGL
- Protocol description: Full-length Tau (flTau) disaggregation assay by Thioflavin T (ThT)
- Experimental parameters: 2 μM flTau aggregates, 160 to 0.04 μM compound, 30 minutes RT, ThT fluorescence
- Experimental: Biological Assay Description Full-Length Tau (flTau) Disaggregation Assay by Thioflavin T (ThT) The longest isoform of human Tau (2N4R; 441 amino acids) was expressed in bacteria and purified. For the Tau disaggregation assay by ThT, 35 μM of recombinant full-length (fl)Tau in PBS were aggregated for 24 hours at 37° C. in presence of 50 μM of heparin (Sigma-Aldrich) and 10 mM of DTT (Sigma-Aldrich) under shaking at 750 RPM. […]
Parameter measured: EC50

Consider the worked cases shown below.
CN(C)[C@@H]1CCc2c(c3ccc(Nc4ccc5nc(N6CCOCC6)sc5c4)nc3n2C)C1
< 10 µM
CN(C)C1CCc2c(c3ccc(Nc4ccc5sc(N6CCC[C@@H](F)C6)nc5c4)nc3n2C)C1 (some centres unmarked)
< 10 µM
CN(C)C1CCc2c(c3ccc(Nc4ccc5sc(N6CCC[C@H](F)C6)nc5c4)nc3n2C)C1 (some centres unmarked)
< 10 µM
CN(C)[C@@H]1CCc2c(c3ccc(Nc4ccc5nc(N6CCC[C@@H](F)C6)oc5c4)nc3n2C)C1
10 to 25 µM
CN(C)C1CCc2c(c3ccc(Nc4ccc5sc(N6CCC(F)CC6)nc5c4)nc3n2C)C1 (centres unmarked)
< 10 µM

Query block: Give flTau aggregates (longest isoform of human Tau, 2N4R; 441 amino acids) (Homo sapiens) EC50 for CN(C)C1CCc2c(c3ccc(Nc4ccc5nc(N6CCC(F)CC6)sc5c4)nc3n2C)C1 (centres unmarked)
Result block: 10 to 25 µM

Query block: Give flTau aggregates (longest isoform of human Tau, 2N4R; 441 amino acids) (Homo sapiens) EC50 for CN(C)[C@@H]1CCc2c(c3ccc(Nc4ccc5nc(N6CCOCC6)oc5c4)nc3n2C)C1
Result block: 25 to 50 µM

Query block: Give flTau aggregates (longest isoform of human Tau, 2N4R; 441 amino acids) (Homo sapiens) EC50 for CN(C)C1CCc2[nH]c3nc(Nc4ccc5nc(N6CCOCC6)oc5c4)ccc3c2C1 (centres unmarked)
Result block: 10 to 25 µM
